Below is a list of entries, each paired with its recorded soluble fraction (log2) value.
# Measurement description: soluble fraction after stress (log2 fold change); higher = more stays soluble; pooled small domains, quantitative proteomics
# Reported conditions: stress: 50 degC

Some solved entries appear below for comparison.
| Sequence input | soluble fraction (log2) |
| --- | --- |
| HMNVPLYIMIESAVEQRLLDGTYQVGKMIPTEFELMDEFSVSRETVRKAINLLVQRGKLEKKRGIGTFVAS | -2.92 |
| HMAMKFQDIVRQKRKELGLTQEQAARRLGVSPAAVSKWESGQSLPDTPLFAPLARLLHTDLNTLLSFE | -0.732 |
| HMIGDNNELFQKAQLTPREKEVALLLLQGETNSDIAKILYVGLSTVKKHISSIFEKTKVKSRTEFISKVR | -0.803 |

API: the following record is the query input.
Query: Answer with the recorded soluble fraction (log2) of HMRVTEVSYDKFLDMLSGGQVTVVELQENERELYFKAADENGAERIYSTGVFPDADLQKRLSESGVTF only.
Result: -0.025
